Molecular target: Aromatase (Homo sapiens) (UniProt P11511)
Sequence (P11511 whole entry, looked up): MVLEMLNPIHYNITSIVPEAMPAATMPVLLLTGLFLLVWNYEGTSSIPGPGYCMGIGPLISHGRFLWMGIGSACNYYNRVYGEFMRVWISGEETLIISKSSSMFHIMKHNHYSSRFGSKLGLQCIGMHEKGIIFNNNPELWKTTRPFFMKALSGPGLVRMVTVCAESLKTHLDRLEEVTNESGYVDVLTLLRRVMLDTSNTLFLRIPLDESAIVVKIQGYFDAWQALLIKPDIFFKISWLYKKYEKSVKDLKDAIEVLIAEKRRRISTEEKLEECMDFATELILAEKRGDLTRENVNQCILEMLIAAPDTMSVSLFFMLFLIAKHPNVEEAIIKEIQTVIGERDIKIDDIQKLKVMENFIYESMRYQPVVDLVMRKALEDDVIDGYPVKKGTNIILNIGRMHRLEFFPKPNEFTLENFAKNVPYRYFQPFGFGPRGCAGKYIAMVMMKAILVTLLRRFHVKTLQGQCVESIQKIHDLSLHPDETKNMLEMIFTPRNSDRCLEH
Assay: qHTS assay to identify aromatase inhibitors (AID 743083); also: nearly all actives have a fitted effect of over 55% in size
Settings: MCF-7 aro ERE, testosterone-driven ERE luciferase, 24 h; series mostly up to 70.3 µM
Inconclusive results are not listed. The source made the active and inactive calls. Calls follow the shape of the dose curve; as a rule, active = well fitted inhibition curve with a large enough effect in the repeat runs; inconclusive = weak or mixed curves; inactive = no such curve, though single readings can be large or run the other way.
Write down the outcome that applies. Available outcomes: T for active, F for inactive

State the result this test recorded for CC(C)n1nc(-c2cc3cc(O)ccc3[nH]2)c2c(N)ncnc21 .
T

What did the test return for CCCCCCCCCCC=O ?
F

Per the assay record, what outcome was assigned to CNc1ccc(O)cc1 ?
T

What outcome does the record of this test show for OCCN(CCO)c1nc(N2CCCCC2)c2nc(N(CCO)CCO)nc(N3CCCCC3)c2n1 ?
F

So what was the verdict on CCCCN1CCCC[C@H]1C(=O)Nc1c(C)cccc1C in this test?
F

Hi team, can someone confirm the assay call for O=c1c(-c2ccccc2)c1-c1ccccc1 ?
T

Fill in: this test's call for NNc1nc(-c2ccccc2)cs1 is ___
F

----------
Experiment: qHTS assay to identify small molecule antagonists of the androgen receptor (AR) signaling pathway using the MDA cell line - cell viability counter screen (AID 743041; also: nearly all actives have a fitted effect of over 45% in size; also: potency is read from the fitted curve at half-maximal effect)
Details: MDA-kb2 viability, CellTiter-Fluor, 16 h, cells co-treated with R1881 androgen agonist; series mostly up to 70.3 µM
Inconclusive results are not listed. The source made the active and inactive calls. Calls come from the whole dose curve; as a rule, active = well fitted cell-killing curve with a large enough effect in the repeat runs; inconclusive = weak or mixed curves, or effect the other way; inactive = flat fitted curve, though single readings scatter.
Measurement kind: Potency

Check out these entries, answers already filled in.
1) C[C@]12CCC(=O)C=C1CC[C@@H]1[C@@H]2[C@@H](O)C[C@@]2(C)[C@H]1CC[C@]2(O)C(=O)COC(=O)CCC(=O)O    inactive
2) CC(NN)c1ccccc1 (centres undefined)    inactive
3) NNc1nc(-c2ccccc2)cs1    inactive
4) CCCCCCCCCCCCCCCCCC[N+](C)(C)Cc1ccccc1    17.4 µM (active)
5) C=CC(=O)OCC(CO)(COCC(COC(=O)C=C)(COC(=O)C=C)COC(=O)C=C)COC(=O)C=C    1.2 µM (active)

Input O=C(N/N=C/c1ccccc1O)c1ccncc1 , output reported Potency.
inactive

# return recorded Potency for entry Clc1ccccc1C(c1ccccc1)(c1ccccc1)n1ccnc1
inactive

Please report Potency for the following molecule: ON=C1CCCC1
inactive

Give the measured Potency for C=C(C)C(=O)OCC[N+](C)(C)C
inactive

Supply reported Potency belonging to this molecule: CSc1ccc2c(c1)C(N1CCN(C)CC1)Cc1ccccc1S2 (centres undefined)
inactive

For CC(C)(C)c1ccc(C(=O)O)cc1 , write its Potency.
inactive

Please give measured Potency of the following entry: O=C(O)c1c(Cl)cccc1Cl
inactive

----------
Test: qHTS RealTime-Glo MT Cell Viability Assay in HEK293 cells - 0 hour (AID 1224880); also: top concentration of the series differs between compounds; nearly all actives have a fitted effect of over 45% in size
Settings: RealTime-Glo luminescence; series mostly up to 76.8 µM
Records with an inconclusive call do not appear. Calls of active or inactive are those of the source. Calls come from the whole dose curve; as a rule, active = well fitted cell-killing curve with a large enough effect in the repeat runs; inconclusive = weak or mixed curves, or effect the other way; inactive = flat fitted curve, though single readings scatter.
Measurement kind: outcome

1) CCCCN1C(=O)[C@@H]([C@H](O)C2CCCCC2)NC(=O)C12CCN(Cc1ccc(Oc3ccc(C(=O)O)cc3)cc1)CC2    inactive
2) COc1cc(-c2nc(NC(=O)c3cc4cc(C)cc(C)c4n3CC(=O)O)sc2CCC2CCCCC2)c(OC)cc1Cl    inactive
3) CC[C@H]1O[C@]2(CC[C@@H]1C)C[C@@H]1C[C@@H](C/C=C(\C)C[C@@H](C)/C=C/C=C3\CO[C@@H]4[C@H](O)C(C)=C[C@@H](C(=O)O1)[C@]34O)O2    inactive
4) C=C(C)C(=O)OCC[N+](C)(C)C    inactive

----------
Biological target: Cytochrome P450 2D6 (Homo sapiens) (UniProt P10635)
Sequence (P10635 whole entry, looked up): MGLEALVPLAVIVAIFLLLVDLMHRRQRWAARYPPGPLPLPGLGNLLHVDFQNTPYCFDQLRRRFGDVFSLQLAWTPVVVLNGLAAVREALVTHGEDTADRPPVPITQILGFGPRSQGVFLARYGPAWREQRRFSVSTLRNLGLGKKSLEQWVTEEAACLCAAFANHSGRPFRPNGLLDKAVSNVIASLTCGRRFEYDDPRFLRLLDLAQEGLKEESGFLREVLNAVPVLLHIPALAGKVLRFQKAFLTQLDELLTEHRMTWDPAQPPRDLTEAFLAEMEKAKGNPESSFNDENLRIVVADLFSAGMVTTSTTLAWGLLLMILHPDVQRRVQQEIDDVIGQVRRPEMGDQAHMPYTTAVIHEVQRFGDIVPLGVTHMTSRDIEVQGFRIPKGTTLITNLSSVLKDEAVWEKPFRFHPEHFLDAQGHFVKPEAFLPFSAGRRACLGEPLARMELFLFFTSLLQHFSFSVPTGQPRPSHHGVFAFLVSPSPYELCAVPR
Test: Cytochrome P450 Family 2 Subfamily D Member 6 (CYP2D6) small molecule antagonists: luciferase reporter qHTS assay (AID 1671196); also: nearly all actives have a fitted effect of over 50% in size; also: potency is read from the fitted curve at half-maximal effect
Settings: P450-Glo CYP2D6 enzyme assay, luciferin luminescence, 1 h; series mostly up to 115 µM
Records with an inconclusive call do not appear. Activity calls are given as the source filed them. The call rests on the fitted dose curve; in most records, active means well fitted inhibition curve with a large enough effect in the repeat runs; inconclusive means weak or mixed curves; inactive means no such curve, though single readings can be large or run the other way.
Measurement kind: Potency

Reference set (5 entries):
1) Cc1oc(-c2ccccc2)nc1CCC(=O)c1ccc(CC2SC(=O)NC2=O)cc1 (stereo unspecified)    inactive
2) NC(=O)C1(N2CCCCC2)CCN(CCCN2c3ccccc3CCc3ccc(Cl)cc32)CC1    7.76 µM (active)
3) OCCN(CCO)c1nc(N2CCCCC2)c2nc(N(CCO)CCO)nc(N3CCCCC3)c2n1    9.77 µM (active)
4) CCCCCCCCCCC=O    inactive
5) Cc1cc(O)c2ccccc2c1O    17.4 µM (active)

Here is another compound to look at.
Please indicate Potency recorded for CCCCCCCC(=O)[O-].CCCCCCCC(=O)[O-].[Zn+2]
inactive

----------
Target: Cytochrome P450 2C19 (Homo sapiens)
Assay: Cytochrome P450 Family 2 Subfamily C Member 19 (CYP2C19) small molecule antagonists: luciferase reporter qHTS assay (AID 1671197); also: nearly all actives have a fitted effect of over 65% in size
Conditions: P450-Glo CYP2C19 enzyme, luciferin luminescence, 1 h; series mostly up to 52.9 µM
Results filed as inconclusive are left out. Active and inactive are the calls of the source. The call rests on the fitted dose curve; in most records, active means well fitted inhibition curve with a large enough effect in the repeat runs; inconclusive means weak or mixed curves; inactive means no such curve, though single readings can be large or run the other way.
Could you please pick one outcome from this set? yes (1) for active, no (0) for inactive

Name the outcome recorded for ON=C1CCCC1 in the assay.
yes (1)

Could you check what this test reported for Cc1cc(C2CCCCC2)n(O)c(=O)c1 ?
no (0)

Which result was noted for this compound in the test: O=C(N/N=C/c1ccccc1O)c1ccncc1
yes (1)

// outcome(item) with item = CC(C)(C)C1CCC(CC2=C(O)c3ccccc3C(=O)C2=O)CC1 (stereo unspecified)
no (0)

For CCC(C)(C)C1CCCCC1OC(C)=O (stereo unspecified) , what call appears in the results of this test?
no (0)

Status in this test for CC[C@@]1(O)C(=O)OCc2c1cc1n(c2=O)Cc2cc3c(CN(C)C)c(O)ccc3nc2-1 ?
no (0)

Assay result, entry CC/C(=C(\c1ccc(O)cc1)c1ccc(OCCN(C)C)cc1)c1ccccc1 — outcome?
yes (1)

Hi team, can someone confirm the assay call for O=C(Nc1ccc(Oc2ccc(Cl)cc2)c(Cl)c1)c1cc(I)cc(I)c1O ?
no (0)

So what was the verdict on COc1c(C)c2c(c(O)c1C/C=C(\C)CCC(=O)O)C(=O)OC2 in this test?
no (0)

Fill in: this test's call for CC1(C)CCC(C)(C)c2cc(C(=O)Nc3ccc(C(=O)O)cc3)ccc21 is ___
no (0)

Can you look up the reported call for c1cc(C(c2ccc(OCC3CO3)cc2)c2ccc(OCC3CO3)cc2)ccc1OCC1CO1 (stereo unspecified) for me?
yes (1)

Tell me the assay call for CC(C)(C)c1ccc(C(=O)O)cc1 please.
no (0)

# outcome recorded in this test, key = CCC(N)(CO)CO
no (0)

Tell me the assay call for CN1CCC(Nc2ncc3ncnc(Nc4ccc(F)c(Cl)c4)c3n2)CC1 please.
no (0)

Could you kindly confirm the outcome this assay logged for CCN(C(=O)N(CC)c1ccccc1)c1ccccc1 ?
yes (1)

Please state the recorded outcome for this compound: O=C(OC[C@H]1O[C@@H](OC(=O)c2cc(O)c(O)c(OC(=O)c3cc(O)c(O)c(O)c3)c2)[C@H](OC(=O)c2cc(O)c(O)c(OC(=O)c3cc(O)c(O)c(O)c3)c2)[C@@H](OC(=O)c2cc(O)c(O)c(OC(=O)c3cc(O)c(O)c(O)c3)c2)[C@@H]1OC(=O)c1cc(O)c(O)c(OC(=O)c2cc(O)c(O)c(O)c2)c1)c1cc(O)c(O)c(OC(=O)c2cc(O)c(O)c(O)c2)c1
no (0)

Query: recorded result category for COc1ccc(-c2ccc3cc(C(=O)O)ccc3c2)cc1C12CC3CC(CC(C3)C1)C2 in this test
no (0)

Field: outcome | Entry: NC(=O)NS(=O)(=O)c1ccc(N)cc1
no (0)

Entry CCN1/C(=C/C=C/c2sc3ccccc3[n+]2CC)Sc2ccccc21 : call = ?
yes (1)

Write down the call the test reported for this compound. Item: Nc1ccc2c3c(cccc13)-c1ccccc1-2
yes (1)

Outcome logged for CCCCCCCCCCCCc1ccc(O)cc1 in this assay:
yes (1)

----------
Biological target: Voltage-gated inwardly rectifying potassium channel KCNH2 (Homo sapiens)
Assay: Human Ether-a-go-go-Related Gene (hERG) channel small molecule antagonists: fluorescence cell-based qHTS assay (AID 1671200); also: nearly all actives have a fitted effect of over 50% in size
Conditions: hERG-U2OS cells, FluxOR thallium flux fluorescence; series mostly up to 76.8 µM
Inconclusive results are not listed. The source made the active and inactive calls. The call rests on the fitted dose curve; in most records, active means well fitted inhibition curve with a large enough effect in the repeat runs; inconclusive means weak or mixed curves; inactive means flat fitted curve, though single readings scatter.
// classify into active, inactive

What did this assay record as the result for CCOc1ccc2nc3cc(N)ccc3c(N)c2c1 ?
inactive

# fetch the recorded call for O=C(NOCC1CC1)c1ccc(F)c(F)c1Nc1ccc(I)cc1Cl here
inactive

Please state the recorded outcome for this molecule: NC(=O)CC[C@@H]1NC(=O)[C@H](Cc2ccccc2)NC(=O)[C@H](Cc2ccc(O)cc2)NC(=O)CCSSC[C@@H](C(=O)N2CCC[C@H]2C(=O)N[C@@H](CCCN=C(N)N)C(=O)NCC(N)=O)NC(=O)[C@H](CC(N)=O)NC1=O
inactive

Which result was noted for this molecule in the test: Cc1cc(N)c(S(=O)(=O)O)cc1Cl
inactive

GET /call?item= Oc1ccc(Cl)cc1Sc1cc(Cl)ccc1O returns the recorded outcome of this test.
inactive

Identify the outcome logged in this assay for the molecule shown: CC(C)c1ccc2c(c1)CC[C@H]1[C@](C)(CN)CCC[C@]21C
active

Lab log entry: O=C(Nc1cccc([N+](=O)[O-])c1)c1cc2ccccc2cc1O — outcome as called in the assay?
inactive

Write down the call the test reported for this molecule. Item: OCCN(CCO)c1nc(N2CCCCC2)c2nc(N(CCO)CCO)nc(N3CCCCC3)c2n1
inactive

Tell me the recorded outcome of this test for NNc1nc(-c2ccccc2)cs1 .
inactive

Per the records of this test, what outcome belongs to NNc1nc(-c2ccc([N+](=O)[O-])cc2)cs1 ?
active

Dear all, I need the recorded test outcome for NC(=NCCCCCCN=C(N)/N=C(\N)Nc1ccc(Cl)cc1)/N=C(\N)Nc1ccc(Cl)cc1 , thank you.
inactive

Query: recorded result category for CCCCC(CC)COC(=O)c1ccccc1C(=O)O (configuration not stated) in this test
inactive

Record lookup: outcome of this test for OCCN1CCN(CC/C=C2/c3ccccc3Sc3ccc(C(F)(F)F)cc32)CC1 ?
active

In this assay, the call recorded for [Cl][Bi]([Cl])([c]1ccccc1)([c]1ccccc1)[c]1ccccc1 was what?
active

Please let me know the test result on file for NC(=O)N1C(=O)C(C(=O)c2cc(Cl)cs2)c2cc(F)c(Cl)cc21 (configuration not stated) .
inactive

Lab log entry: Cc1onc(-c2ccccc2Cl)c1C(=O)N[C@@H]1C(=O)N2[C@@H]1SC(C)(C)[C@@H]2C(=O)O — outcome as called in the assay?
inactive

Please share the test call associated with CCOC(=O)O[C@]1(C(=O)OCCl)CC[C@H]2[C@@H]3CCC4=CC(=O)C=C[C@]4(C)[C@H]3[C@@H](O)C[C@@]21C .
inactive

Could you kindly confirm the outcome this assay logged for C1CCCC1 ?
inactive

Record request — test call for CCCCCCCCCCCCCCCC[N+](C)(C)CCN(Cc1ccc(OC)cc1)c1ncccn1
active

Dear all, I need the recorded test outcome for COc1cc(-c2ccc(N=C=O)c(OC)c2)ccc1N=C=O , thank you.
inactive

// param item: N#CC1(c2ccc(F)cc2)CCC(=O)CC1 ; yields the recorded call
inactive

Look up the recorded call for O=Cc1cc(O)ccc1Br in this test.
inactive
